B1: PHTF1 (parent)
chain: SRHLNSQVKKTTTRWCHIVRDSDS

variants of: B1; experiment: protein stability index of a GFP-peptide fusion (GPS, HEK-293T) (PSI 1-6); higher = more stable; settings: c terminus: a fixed tail appended;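 further: lentivirally expressed fusions sorted by FACS into six bins by GFP to DsRed ratio, PSI derived from sequencing read proportions per bin multiplied by bin number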
Would you kindly list protein stability index for each of these variants?
Lab note: jot the number down without any unit.

Ask: May I ask what protein stability index has been recorded for SRHLNSQVKKTTTVWCHIVRDSDS [R14V] ?
Reply: 3.08

Ask: Given the variant SRHLNSQVKKTTTRWCHIVRDSTS [D23T] , what is its reported protein stability index?
Reply: 1.78

Ask: Fill in: protein stability index of SRHLNSQVKKTTTRWCHIARDSDS [V19A] is ___
Reply: 2.8

Ask: Entry SRHLNSQVMKTTTRWCHIVRDSDS [K9M] has what protein stability index?
Reply: 2.37

Ask: Which protein stability index value belongs to SRHLNSDVKKTTTRWCHIVRDSDS [Q7D] ?
Reply: 2.65

Ask: Look up protein stability index for this variant: SRHLNSQVKKTTTRWLHIVRDSDS [C16L]
Reply: 2.79

Ask: What value of protein stability index has been recorded for this entry: SRHLNSQVKKTTTRWCHIVYDSDS [R20Y]
Reply: 2.4

Ask: Using the record for SRHLNSQVKKTTTRHCHIVRDSDS [W15H] , report its protein stability index.
Reply: 3.53

Ask: Find the recorded protein stability index belonging to SRHLNSCVKKTTTRWCHIVRDSDS [Q7C] and report it.
Reply: 2.08

Ask: Give its protein stability index value. Item: SHHLNSQVKKTTTRWCHIVRDSDS [R2H]
Reply: 1.96

Ask: Given SRHLASQVKKTTTRWCHIVRDSDS [N5A] , state its recorded protein stability index.
Reply: 2.19

Ask: # query: protein stability index of entry SRHLNSQVKKTTTRWNHIVRDSDS [C16N]
Reply: 3.65

Ask: Bench note: what protein stability index did SRHLNSQVKKTGTRWCHIVRDSDS [T12G] show?
Reply: 1.64

Ask: # get_value(readout='protein stability index', item= SRHLNSQVKKTTTCWCHIVRDSDS [R14C] )
Reply: 1.87

Ask: Look up protein stability index for this variant: SRHLNSQSKKTTTRWCHIVRDSDS [V8S]
Reply: 2.61

Ask: Fill in: protein stability index of SRHLNSQVKKTTTRWCHIVRDPDS [S22P] is ___
Reply: 1.77

Ask: What measured protein stability index goes with SRHLNLQVKKTTTRWCHIVRDSDS [S6L] ?
Reply: 1.68

Ask: Using the record for SRHLNSQVKKLTTRWCHIVRDSDS [T11L] , report its protein stability index.
Reply: 1.58

Ask: What does the data say about its protein stability index? Entry: SRHQNSQVKKTTTRWCHIVRDSDS [L4Q]
Reply: 2.12

Ask: Given the variant SRHLNSQVKKTTTRWCHIVTDSDS [R20T] , what is its reported protein stability index?
Reply: 2.61

Ask: Field request: protein stability index | item: SRHLNSQVKKTTTRWCHLVRDSDS [I18L]
Reply: 3.42

Ask: // returns reported protein stability index for input SRHLNEQVKKTTTRWCHIVRDSDS [S6E]
Reply: 2.31

Ask: So what does the record say about protein stability index for SRHLNSQEKKTTTRWCHIVRDSDS [V8E] ?
Reply: 2.79

Ask: Query (variant): SRHLNSQVKKTTTRWCHVVRDSDS [I18V] ; field requested: protein stability index
Reply: 1.73

Ask: Given SRHLNSQVKKTTTRWCHIVPDSDS [R20P] , state its recorded protein stability index.
Reply: 2.3

Ask: Recorded protein stability index for SRCLNSQVKKTTTRWCHIVRDSDS [H3C] , please?
Reply: 1.95

Ask: Which protein stability index value is on record for SRHLNSQVKKTTRRWCHIVRDSDS [T13R] ?
Reply: 2.14

Ask: Which protein stability index is reported for this variant? SRHLNSQQKKTTTRWCHIVRDSDS [V8Q]
Reply: 1.98

Ask: Give its protein stability index value. Item: SRRLNSQVKKTTTRWCHIVRDSDS [H3R]
Reply: 1.79

Ask: For the variant shown here, SRHANSQVKKTTTRWCHIVRDSDS [L4A] , give the reported protein stability index.
Reply: 2.58

Ask: Field request: protein stability index | item: SRHLNSQVKKTTTRWCHKVRDSDS [I18K]
Reply: 2.77

Ask: Request the reported protein stability index associated with SRHLNSQTKKTTTRWCHIVRDSDS [V8T]
Reply: 2.1

Ask: Query: protein stability index; subject: SRHLNSQVKKTTTRWCHIVRDSDM [S24M]
Reply: 2.21

Ask: Quick check: protein stability index of SRHLNSTVKKTTTRWCHIVRDSDS [Q7T] ?
Reply: 2.82

Ask: Find the recorded protein stability index belonging to SRHLNSQVKKTTTRWCHIVRDSES [D23E] and report it.
Reply: 1.99

Ask: Fill in: protein stability index of SRHLNSQVKKTTTRWCHIYRDSDS [V19Y] is ___
Reply: 2.44

Ask: So what's the measured protein stability index for this one? SRHLNSQVKKTNTRWCHIVRDSDS [T12N]
Reply: 1.76

Ask: Returns the measured protein stability index for the input variant. Input: SRHLNSGVKKTTTRWCHIVRDSDS [Q7G]
Reply: 1.89

Ask: Requested field: protein stability index. Item: SRHLNSQVKKTTTRWCHIVQDSDS [R20Q]
Reply: 2.09

Ask: # query: protein stability index of entry SRHLNVQVKKTTTRWCHIVRDSDS [S6V]
Reply: 1.94

Ask: Fill in: protein stability index of SRHLNSQHKKTTTRWCHIVRDSDS [V8H] is ___
Reply: 2.22

Ask: Need protein stability index of SRHLNSQVKKTTTRWCHIVGDSDS [R20G] , thanks.
Reply: 1.76

Ask: Which measured protein stability index value corresponds to SRHLNSQVKKTTTRLCHIVRDSDS [W15L] ?
Reply: 2.77

Ask: Which protein stability index value belongs to SRHLNSQVKKTLTRWCHIVRDSDS [T12L] ?
Reply: 1.53

Ask: Item SRHLNSQNKKTTTRWCHIVRDSDS [V8N] has what recorded protein stability index?
Reply: 1.78

Ask: Look up protein stability index: SRHLNSQVKKTTTRWCQIVRDSDS [H17Q]
Reply: 1.71

Ask: Return reported protein stability index; argument: SRHLNSQVKLTTTRWCHIVRDSDS [K10L]
Reply: 1.8

Ask: Reported protein stability index, variant SRHLNSQVKFTTTRWCHIVRDSDS [K10F] : ____
Reply: 1.78

Ask: Fill in the blank: the reported protein stability index of SFHLNSQVKKTTTRWCHIVRDSDS [R2F] is ____.
Reply: 2.56

Ask: # lookup: protein stability index of SRHLNSQVKKTTTPWCHIVRDSDS [R14P]
Reply: 2

Ask: Recorded protein stability index for SRHLNSQVKKDTTRWCHIVRDSDS [T11D] , please?
Reply: 2.97

Ask: Record request: protein stability index value, item SRHLNSQVKKTTTRWCHIVRDSDQ [S24Q]
Reply: 2.02

Ask: Query: protein stability index; subject: SRHLNSQVKKKTTRWCHIVRDSDS [T11K]
Reply: 2.16

Ask: Quick one: protein stability index of SRHLNSQGKKTTTRWCHIVRDSDS [V8G] ?
Reply: 2.57

Ask: Requested read-out: protein stability index. Entry: SRHLNSQVKSTTTRWCHIVRDSDS [K10S]
Reply: 2.87

Ask: Which value of protein stability index has been reported for SRHLNSQVKKTTTRVCHIVRDSDS [W15V] in the records?
Reply: 3.06

Ask: Fill in the blank: the reported protein stability index of SRHLNSQVKKTTTRWCHIVRDSHS [D23H] is ____.
Reply: 2.34

Ask: So what's the measured protein stability index for this one? SRHLNSQWKKTTTRWCHIVRDSDS [V8W]
Reply: 1.34

Ask: # query: protein stability index of entry SRHLNSQVKKTTTRPCHIVRDSDS [W15P]
Reply: 3.86

Ask: Any idea what its protein stability index is? The variant is SRPLNSQVKKTTTRWCHIVRDSDS [H3P]
Reply: 1.64

Ask: Need protein stability index, item SRHLNSQVKKTTTRWTHIVRDSDS [C16T]
Reply: 2.01

Ask: Look at this variant and give its reported protein stability index. SRHLNSKVKKTTTRWCHIVRDSDS [Q7K]
Reply: 2.45

Ask: Look up protein stability index: SRHLNSQVKKTTTRWCHIVRDSQS [D23Q]
Reply: 1.84

Ask: # get_value(readout='protein stability index', item= SRHLNSQVKKTTTRWCHIVRPSDS [D21P] )
Reply: 2.57

Ask: Report protein stability index for SRHLNSQVSKTTTRWCHIVRDSDS [K9S] please.
Reply: 2.26

Ask: What does the data say about its protein stability index? Entry: SRHLNSQVKKTTTRWHHIVRDSDS [C16H]
Reply: 3.28

Ask: State the recorded protein stability index for this entry: SRHLNSQVKKTPTRWCHIVRDSDS [T12P]
Reply: 2.71

Ask: Tell me the measured protein stability index of SRHLNSQVKKTTTRWKHIVRDSDS [C16K] , please.
Reply: 2.99

Ask: // protein stability index lookup, key: SRHLNSQLKKTTTRWCHIVRDSDS [V8L]
Reply: 2.07

Ask: protein stability index lookup needed for SRHLNHQVKKTTTRWCHIVRDSDS [S6H] , thanks.
Reply: 2.29

Ask: Any idea what protein stability index was measured for SRHLNSQVKKTTTRWCHIVRDSGS [D23G] ?
Reply: 1.56

Ask: Requested read-out: protein stability index. Entry: SRHWNSQVKKTTTRWCHIVRDSDS [L4W]
Reply: 2.25

Ask: Report protein stability index for SRHLNSLVKKTTTRWCHIVRDSDS [Q7L] please.
Reply: 1.84

Ask: protein stability index lookup needed for SRHLNSQVKKTTTRWCHIVRDSVS [D23V] , thanks.
Reply: 1.62

Ask: Look up protein stability index for this variant: SRHLNSQVKKTTTRWCHTVRDSDS [I18T]
Reply: 2.17

Ask: Which protein stability index value is on record for SRHLNSQVKKTTTRWCHIPRDSDS [V19P] ?
Reply: 2.42

Ask: Give the measured protein stability index of SRHLNSQVWKTTTRWCHIVRDSDS [K9W] .
Reply: 1.85

Ask: Any idea what protein stability index was measured for GRHLNSQVKKTTTRWCHIVRDSDS [S1G] ?
Reply: 2.06

Ask: State the recorded protein stability index for this entry: SRHGNSQVKKTTTRWCHIVRDSDS [L4G]
Reply: 1.8

Ask: Quick check: protein stability index of SRHLNSQDKKTTTRWCHIVRDSDS [V8D] ?
Reply: 2.06

Ask: Could you share which protein stability index value was measured for SRHLNSQVKKTTTRICHIVRDSDS [W15I] ?
Reply: 3.36

Ask: Dear colleague, I am looking for the recorded protein stability index of the following variant: SRTLNSQVKKTTTRWCHIVRDSDS [H3T]
Reply: 2.23

Ask: If you can, please state the reported protein stability index value of SRHLNSQVKKTTTRWCHIVRKSDS [D21K] .
Reply: 2.39

Ask: Entry SRHLNSQVKKQTTRWCHIVRDSDS [T11Q] : reported protein stability index = ?
Reply: 2.43

Ask: I'd like to know its protein stability index. The variant in question is SRHLNSQVKKTTTRWCHIVEDSDS [R20E]
Reply: 2.75

Ask: Field request: protein stability index | item: SRHLNSQVKKTTTRWCYIVRDSDS [H17Y]
Reply: 2.42

Ask: Using the record for SRHLNSNVKKTTTRWCHIVRDSDS [Q7N] , report its protein stability index.
Reply: 1.78

Ask: Param item = SRHMNSQVKKTTTRWCHIVRDSDS [L4M] ; retrieve measured protein stability index.
Reply: 1.76

Ask: Find the recorded protein stability index belonging to SRHLNIQVKKTTTRWCHIVRDSDS [S6I] and report it.
Reply: 2.22

Ask: Which protein stability index reading was recorded for the variant SRHLNSQVKKTTTKWCHIVRDSDS [R14K] ?
Reply: 2.3

Ask: Any idea what its protein stability index is? The variant is SRHLFSQVKKTTTRWCHIVRDSDS [N5F]
Reply: 2.02
